# Target Desc: Presequence protease, mitochondrial (Homo sapiens, UniProt Q5JRX3)
# Sequence (Q5JRX3 whole entry): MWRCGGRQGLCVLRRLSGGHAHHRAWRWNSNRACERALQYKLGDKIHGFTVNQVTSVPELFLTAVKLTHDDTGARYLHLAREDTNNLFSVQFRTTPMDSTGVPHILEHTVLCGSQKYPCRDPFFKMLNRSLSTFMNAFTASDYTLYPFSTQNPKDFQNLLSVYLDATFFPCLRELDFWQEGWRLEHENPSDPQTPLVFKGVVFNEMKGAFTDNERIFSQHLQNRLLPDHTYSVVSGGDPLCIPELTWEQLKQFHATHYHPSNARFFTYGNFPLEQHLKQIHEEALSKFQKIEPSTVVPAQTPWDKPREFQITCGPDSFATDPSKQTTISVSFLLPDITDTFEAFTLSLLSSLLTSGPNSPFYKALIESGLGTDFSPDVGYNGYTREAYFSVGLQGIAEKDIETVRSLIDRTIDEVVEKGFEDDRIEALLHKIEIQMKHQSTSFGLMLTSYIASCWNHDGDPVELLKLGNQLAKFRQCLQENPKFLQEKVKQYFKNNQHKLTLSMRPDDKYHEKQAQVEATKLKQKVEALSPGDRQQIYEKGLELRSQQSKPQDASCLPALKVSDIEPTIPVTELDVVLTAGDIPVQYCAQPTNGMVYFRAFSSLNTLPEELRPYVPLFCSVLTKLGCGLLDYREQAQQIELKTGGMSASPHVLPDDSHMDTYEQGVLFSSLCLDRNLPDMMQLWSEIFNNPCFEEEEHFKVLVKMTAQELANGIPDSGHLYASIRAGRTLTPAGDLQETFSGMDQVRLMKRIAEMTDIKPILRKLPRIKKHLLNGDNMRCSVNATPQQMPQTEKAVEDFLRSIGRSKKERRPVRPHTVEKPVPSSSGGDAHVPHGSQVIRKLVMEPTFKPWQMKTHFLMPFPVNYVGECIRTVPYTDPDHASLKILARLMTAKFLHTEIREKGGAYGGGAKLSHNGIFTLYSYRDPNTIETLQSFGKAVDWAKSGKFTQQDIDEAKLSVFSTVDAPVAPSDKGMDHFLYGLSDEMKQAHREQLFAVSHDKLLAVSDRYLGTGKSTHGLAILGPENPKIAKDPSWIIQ
# Experimental Details: Agonist activity at human PreP assessed as degradation of biotin-labeled amyloid beta (1 to 42) after 2.5 hrs by Immunoblotting assay
Measured Attribute: EC50 (nM)
Provide the reading as a plain figure in nM.

Problem: Entry O=[N+]([O-])c1ccc2c(c1)N(Cc1cc(Br)ccc1O)C(c1cc(Br)ccc1O)N2Cc1cc(Br)ccc1O (stereo unspecified) needs its EC50 filled in; supply it.
Solution: 402
